The entries below are paired with their reported pIC50.
- assayed.target: wt human TYK2, catalytic site (Homo sapiens, UniProt P29597)
- Construct: wt human TYK2, catalytic site
- Sequence (P29597 897-1176 limits assumed): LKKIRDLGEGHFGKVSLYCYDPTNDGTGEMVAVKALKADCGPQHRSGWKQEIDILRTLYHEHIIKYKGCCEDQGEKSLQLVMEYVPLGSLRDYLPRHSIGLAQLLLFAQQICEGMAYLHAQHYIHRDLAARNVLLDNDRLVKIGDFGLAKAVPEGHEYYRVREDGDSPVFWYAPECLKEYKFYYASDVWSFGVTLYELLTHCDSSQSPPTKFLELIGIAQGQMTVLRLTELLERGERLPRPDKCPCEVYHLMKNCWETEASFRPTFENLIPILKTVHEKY
- assay.text: HTRF KinEASE assay, TYK2
- particulars: 1 μM ATP; read-out: IC50, Activity Toward TYK2
pIC50: −log10 of the molar value.

molecule: NC(=O)c1nn(-c2c(F)cccc2C(F)(F)F)cc1Nc1ccc(C(=O)N2CC3(CCC3)C2)cc1 [compound 61]
pIC50: 7.00 to 8.00

molecule: Cc1cccnc1-c1ccc(Nc2cn(-c3c(Cl)cccc3Cl)nc2C(N)=O)cn1 [compound 395]
pIC50: 6.00 to 7.00

molecule: Cc1cccc2nnc(-c3ccc(Nc4nn(-c5c(Cl)cccc5Cl)nc4C(N)=O)cn3)n12 [compound 139]
pIC50: 6.00 to 7.00

molecule: CC(C)(C)OC(=O)N1CCCC(NC(=O)c2ccc(Nc3cn(-c4c(Cl)cccc4Cl)nc3C(N)=O)cc2)C1 (centres unmarked) [compound 33]
pIC50: 6.00 to 7.00

molecule: NC(=O)c1nn(-c2c(Cl)cccc2Cl)cc1Nc1ccn(-c2ccccn2)n1 [compound 397]
pIC50: 6.00 to 7.00

molecule: Cn1cc(Nc2cn(-c3c(Cl)cccc3Cl)nc2C(N)=O)nn1 [compound 380]
pIC50: 6.00 to 7.00

molecule: CC(C)n1cnnc1-c1ccc(Nc2nn(-c3c(Cl)cccc3Cl)nc2C(N)=O)cc1 [compound 125]
pIC50: 7.00 to 8.00

molecule: COCn1cc(C(F)(F)F)nc1-c1ccc(Nc2cn(-c3c(Cl)cccc3Cl)nc2C(N)=O)cc1 [compound 292]
pIC50: > 8.00
